# target.entity: wtKIT (Homo sapiens)
# Construct: 1888289AM in the reaction mixtures
# Sequence (P10721 26-976): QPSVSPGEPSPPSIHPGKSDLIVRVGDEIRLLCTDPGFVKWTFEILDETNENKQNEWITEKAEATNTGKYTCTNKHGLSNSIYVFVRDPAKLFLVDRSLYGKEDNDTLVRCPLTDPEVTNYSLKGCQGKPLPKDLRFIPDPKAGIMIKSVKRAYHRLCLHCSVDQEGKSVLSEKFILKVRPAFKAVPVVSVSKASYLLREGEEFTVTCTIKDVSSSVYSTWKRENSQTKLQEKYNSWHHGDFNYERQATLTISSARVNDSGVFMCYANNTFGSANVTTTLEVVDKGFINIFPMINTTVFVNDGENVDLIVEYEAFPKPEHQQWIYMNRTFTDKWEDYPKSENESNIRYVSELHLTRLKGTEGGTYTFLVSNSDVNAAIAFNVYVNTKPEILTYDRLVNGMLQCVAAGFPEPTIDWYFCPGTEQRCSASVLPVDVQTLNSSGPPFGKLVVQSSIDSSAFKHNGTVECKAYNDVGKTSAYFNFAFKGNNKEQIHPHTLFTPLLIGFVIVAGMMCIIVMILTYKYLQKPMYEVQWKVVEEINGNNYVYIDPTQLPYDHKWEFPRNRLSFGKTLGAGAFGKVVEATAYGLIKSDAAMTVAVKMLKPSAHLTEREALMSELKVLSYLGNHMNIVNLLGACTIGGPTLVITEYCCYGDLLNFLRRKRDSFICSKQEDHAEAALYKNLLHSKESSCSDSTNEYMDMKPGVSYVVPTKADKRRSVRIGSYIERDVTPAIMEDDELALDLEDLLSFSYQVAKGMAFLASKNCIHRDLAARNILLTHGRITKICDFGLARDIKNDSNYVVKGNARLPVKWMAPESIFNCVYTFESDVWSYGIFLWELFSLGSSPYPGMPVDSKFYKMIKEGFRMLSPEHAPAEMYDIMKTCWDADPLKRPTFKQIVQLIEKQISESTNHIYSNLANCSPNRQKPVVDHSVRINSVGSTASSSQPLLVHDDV
# assay.explanation: HTRF biochemical assay, wtKIT (phosphorylation of a peptide substrate)
# experimental.context: Table 4
pIC50: −log10 of the molar value.
measured.endpoint: pIC50

Example entries and their recorded answers appear below.
compound: Cc1ccc(-c2noc(C3CC(S(=O)(=O)N(C)C)C3)n2)cc1NC(=O)c1cnc2ccccn12 (centres unmarked)
pIC50: 6.30 to 7.30
--
compound: Cc1ccc(-c2noc(C[C@H](C)O)n2)cc1NC(=O)c1cnc2cc(Cl)ccn12
pIC50: ≥ 7.30
--
compound: Cc1ccc(-c2noc(C[C@H](O)C(F)F)n2)cc1NC(=O)c1cnc2ccc(-c3ccn(C)n3)cn12
pIC50: ≥ 7.30
--
compound: Cc1ccc(-c2noc(CC(C)(C)O)n2)cc1NC(=O)c1cnc2ccccn12
pIC50: 6.30 to 7.30
--
compound: Cc1nc(-c2ccc(C)c(NC(=O)c3cnc4cc(OCCCN5CCCC5)ccn34)c2)no1
pIC50: ≥ 7.30

Batch lookup, pIC50 per entry.
1. COC(=O)N1CC(c2nc(-c3ccc(Cl)c(NC(=O)c4cnc5ccccn45)c3)no2)C1
2. Cc1ccc(-c2noc(C3CC(OCCF)C3)n2)cc1NC(=O)c1cnc2ccccn12 (centres unmarked)
3. Cc1nc(-c2ccc(C)c(NC(=O)c3cnc4cc(-c5cscn5)ccn34)c2)no1

[reply]
≥ 7.30
≥ 7.30
≥ 7.30
